Values compiled from patent US11174245B2.

Would you kindly list IC50 for each of these compounds?
- target-of-assay: EGFR wt (Homo sapiens (Human))
- Sequence (P00533 25-1210): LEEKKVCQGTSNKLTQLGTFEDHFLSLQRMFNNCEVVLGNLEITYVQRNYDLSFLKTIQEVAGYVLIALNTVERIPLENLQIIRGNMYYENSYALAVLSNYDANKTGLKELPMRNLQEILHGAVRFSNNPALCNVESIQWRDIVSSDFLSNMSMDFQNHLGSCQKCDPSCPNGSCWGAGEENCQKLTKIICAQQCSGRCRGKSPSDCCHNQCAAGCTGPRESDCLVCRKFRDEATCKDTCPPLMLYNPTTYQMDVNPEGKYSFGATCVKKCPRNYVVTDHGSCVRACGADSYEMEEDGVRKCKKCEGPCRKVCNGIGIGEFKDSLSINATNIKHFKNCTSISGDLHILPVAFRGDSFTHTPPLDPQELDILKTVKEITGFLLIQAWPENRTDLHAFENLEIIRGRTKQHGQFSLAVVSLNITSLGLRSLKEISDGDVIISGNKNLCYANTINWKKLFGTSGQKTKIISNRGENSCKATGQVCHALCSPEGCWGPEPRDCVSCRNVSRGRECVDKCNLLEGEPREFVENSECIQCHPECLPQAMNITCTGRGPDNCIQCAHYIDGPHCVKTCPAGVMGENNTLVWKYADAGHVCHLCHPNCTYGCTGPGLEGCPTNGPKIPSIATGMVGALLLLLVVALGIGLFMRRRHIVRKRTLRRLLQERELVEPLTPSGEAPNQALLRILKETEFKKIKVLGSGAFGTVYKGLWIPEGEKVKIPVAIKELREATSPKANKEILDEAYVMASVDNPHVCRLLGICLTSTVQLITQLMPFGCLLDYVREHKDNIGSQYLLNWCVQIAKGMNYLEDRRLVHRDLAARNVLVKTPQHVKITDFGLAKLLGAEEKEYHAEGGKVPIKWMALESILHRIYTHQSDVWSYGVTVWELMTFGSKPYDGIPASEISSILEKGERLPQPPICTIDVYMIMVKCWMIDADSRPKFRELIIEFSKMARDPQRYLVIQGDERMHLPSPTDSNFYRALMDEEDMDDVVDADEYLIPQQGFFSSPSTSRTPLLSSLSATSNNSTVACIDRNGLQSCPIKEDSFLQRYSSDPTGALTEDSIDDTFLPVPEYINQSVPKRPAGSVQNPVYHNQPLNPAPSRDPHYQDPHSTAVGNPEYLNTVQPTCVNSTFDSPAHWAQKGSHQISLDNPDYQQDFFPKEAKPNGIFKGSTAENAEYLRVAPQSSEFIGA
- test: Biochemical EGFR inhibition assay (TR-FRET, poly-GT substrate), EGFR wt
- applied-conditions: read-out: wt (5 μM ATP) IC50; 5 μM ATP
Write down the numeric answer in nM and omit the unit.

Input COc1ccccc1-c1cc(C(=O)/N=c2\[nH]c3cc(C4CCN(C(C)=O)C4)ccc3n2CC(C)(C)O)ccn1 (stereo not shown) . Output IC50: 56.3

Input "Cn1cc(-c2cc(C(=O)/N=c3\[nH]c4ccccc4n3C3CCCCC3)ccn2)cn1" . Output IC50: 125

Input "Cn1cc(-c2cc(C(=O)/N=c3\[nH]c4ccccc4n3[C@H]3CC[C@@H](O)CC3)cc(C#N)n2)cn1" . Output IC50: 164

Input "Cn1cc(-c2cc(C(=O)/N=c3\[nH]c4ccccc4n3[C@H]3COC[C@H](O)C3)ccn2)cn1" . Output IC50: 1270

Input "COc1ccccc1-c1cc(C(=O)/N=c2\[nH]c3cc(C)ccc3n2[C@H]2CC[C@@H](O)CC2)ccn1" . Output IC50: 12.5

Input "Cc1cc(C(=O)/N=c2\[nH]c3cc(CN4CCOCC4)ccc3n2[C@H]2CC[C@@H](O)CC2)cc(-c2cnn(C)c2)n1" . Output IC50: 5010

Input "O=C(/N=c1\[nH]c2ccccc2n1[C@H]1CC[C@@H](O)CC1)c1ccnc(-c2ccc(F)cc2F)c1" . Output IC50: 302
